Value source: PubChem BioAssay

Tested on: Human papillomavirus type 1a E7 protein (residues 1-88)
Assay: HPV1a E7 small-molecule binders, primary screen, biochemical, small-molecule microarray, residues 1-88, 635 nm (AID 1129)
Details: small-molecule microarray binding, fluorescence 635 nm; higher = more signal
Quick rule: composite z-score of at least 1 means Satisfied, below that means Not satisfied.

Solved entries (count: 3):
- compound: "CN(C)CCCCCCNC(=O)[C@@H]1C[C@@H]2C(=O)N[C@@H](Cc3ccccc3)C(=O)N2[C@@H]1c1cccc(OCCO)c1"
  classAssignment: "Satisfied"
- compound: "O=c1cccc(-c2cccc3ccccc23)o1"
  classAssignment: "Satisfied"
- compound: "CN1C(=O)C2C=CC(C(O)c3ccccc3)N(NC(=O)OC(C)(C)C)C2C1=O (stereo not drawn)"
  classAssignment: "Satisfied"

Lookup: Does the compound C=C(CCCC)C(=O)CC[C@H](OC(=O)c1ccccc1-c1ccccc1C(=O)O)c1ccc(CO)o1 have recorded composite z-score that is 1 or more?
Found: Satisfied

====

Assay: compound effects on hepatocellular carcinoma cell viability – HepG2, calcein-AM fluorescence, 48 h, basal, profiling panel (AID 1164); also: test concentration not given here
Settings: higher = more signal
valueType: z-score
Number only, please.

Lookup: Give z-score for COc1ccc([Si](C)(C)[C@H]2[C@H](CC(=O)N(CCO)Cc3ccccc3)O[C@@]3(C(=O)N(Cc4cccc(N5C(=O)c6cccc7cccc5c67)c4)c4ccccc43)[C@@H]2C)cc1
Found: -1.5

Lookup: Give z-score for COCCCNC(=O)[C@@]1(Sc2ccc(C)cc2)CC(=O)N(Cc2ccccc2)[C@@H]1c1ccc(CO)cc1
Found: -0.543

Lookup: Give z-score for COCCOC(=O)N1C(=O)[C@@]2(c3cc(C#CCC(C(=O)OC)C(=O)OC)ccc31)[C@H](c1ccccc1OCCO)N1[C@H](c3ccccc3)[C@H](c3ccccc3)OC(=O)[C@H]1[C@@H]2C(=O)Nc1nc2ccccc2s1
Found: 1.4

Lookup: Give z-score for COC(=O)[C@@]1(Cc2ccccc2)[C@H]2c3cc(C(=O)N(C)C)n(Cc4ccccc4)c3C[C@H]2CN1C(=O)c1ccccc1
Found: -0.775

Lookup: Give z-score for O=C(CS)NCCCCCNC(=O)[C@H]1C[C@H]2C(=O)N[C@@H](Cc3ccccc3)C(=O)N2[C@H]1c1cccc(OCCO)c1
Found: 0.585

Lookup: Give z-score for COc1ccc(C#Cc2ccc3c(c2)[C@]2(C(=O)N3)[C@H](C(=O)N3CCc4cc(OC)c(OC)cc4C3)[C@H]3C(=O)O[C@H](c4ccccc4)[C@H](c4ccccc4)N3[C@@H]2c2ccc(OCCO)cc2)cc1
Found: 0.515

====

Assay: resazurin metabolic signal in A549 cells – cell-based, resazurin fluorescence, 24 h, PK04 Diversity Set, profiling panel (AID 1171); also: test concentration not given here
Details: A549 viability, higher = more signal, called active from +8 up or from −8 down
valueType: z-score
Number only, please.

// known answers, use as guide
- compound: "C=C(CCCC)C(=O)CC[C@H](OC(C)=O)c1ccc(CO)o1"
  recordedResult: -0.485
- compound: "CCCC[C@H]1OB(O)C[C@H]2C1=C(C)Cn1c(=O)n(-c3ccccc3)c(=O)n12"
  recordedResult: 0.0548
- compound: "O=C1C2C=CC(C(O)C3CC=CCC3)N(n3cnnc3)C2C(=O)N1Cc1ccccc1 (configuration not stated)"
  recordedResult: -0.62
- compound: "COC(=O)C(CC#Cc1ccc2c(c1)[C@]1(C(=O)N2)[C@H](C(=O)N2CCCCCCC2)[C@H]2C(=O)O[C@H](c3ccccc3)[C@H](c3ccccc3)N2[C@@H]1c1ccccc1OCCO)C(=O)OC"
  recordedResult: 0.901
- compound: "CC(C)(C)OC(=O)CC[C@@]1(C(=O)N2CCOCC2)N=C(c2ccc(OCCCO)cc2)O[C@@H]1c1ccccc1N=[N+]=[N-]"
  recordedResult: 0.716

Could you now consider this next compound?
Lookup: Give z-score for CN1C(=O)C2C=CC(C(O)C3=C[C@H]4C[C@@H](C3)C4(C)C)N(Nc3ccc([N+](=O)[O-])cc3[N+](=O)[O-])C2C1=O (some centres not stated)
Found: -0.227
